B1: HDV Ribozyme (parent)
chain: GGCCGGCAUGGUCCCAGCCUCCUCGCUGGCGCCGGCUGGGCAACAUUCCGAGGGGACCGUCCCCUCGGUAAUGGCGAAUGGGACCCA

Variants of: B1
assayText: self-cleavage, relative activity (ratio to wild type); higher = more cleavage; co-transcriptional
Rule: self-cleavage under 0.2 gives -1, otherwise 1.

| variantNotation | group |
| --- | --- |
| G68C C86A | 1 |
| G35A G52C | 1 |
| C48U A77G | 1 |
| C63G G80C | -1 |
| C14G G52U | 1 |
| C32A G81C | -1 |
| G29C C61U | -1 |
| G50U C64A | 1 |
| U20G C48G | 1 |
| G6C G53A | 1 |
| U9G C18U | 1 |
| U47G C49A | 1 |
| A45G G68C | 1 |
| A8U G28U | -1 |
| A16G C36U | 1 |
| C3G A77G | 1 |
| U9G C63U | 1 |
| C32U A70G | 1 |
| G10C A77U | -1 |
| A8G A71U | 1 |
| G2C A42U | -1 |
| C33U U69C | 1 |
| C57U G59A | 1 |
| A51U A77U | 1 |
| A56C C64U | 1 |
| A56C C57U | 1 |
| C64G G74U | 1 |
| G28U G73A | -1 |
| G39U A51G | 1 |
| G35A C63A | 1 |
| G5A A43G | -1 |
| C14U G35U | 1 |
| U47G A83G | 1 |
| A51U G73U | 1 |
| C32A U37G | -1 |
| C22U C48A | 1 |
| G10A G74U | 1 |
| G59A C86G | 1 |
| C7A C36A | -1 |
| G1C U79A | 1 |
| C26A G55A | 1 |
| G29C G53C | -1 |
| U47A G67A | 1 |
| G10C U23G | 1 |
| A56U C86U | 1 |
| C57U G68U | 1 |
| C15A U60A | 1 |
| C57A G74A | 1 |
| A42U A83U | -1 |
| G34A U46A | -1 |
| C32G G55C | -1 |
| A16U G29U | -1 |
| C19G A87U | -1 |
| G5U C63A | 1 |
| U20A C57U | -1 |
| U37C G81U | 1 |
| C30U G73C | -1 |
| G68A G76A | 1 |
| C15A C32G | -1 |
| C14U C58G | 1 |
| C21A G50A | -1 |
| C26A G76A | 1 |
| C15G G82C | -1 |
| G29C C44A | -1 |
| G80C C86G | -1 |
| C26U C57U | 1 |
| G11U C13G | -1 |
| C19G G82U | -1 |
| G31C G35A | -1 |
| A70U A83U | 1 |
| C26U G80C | 1 |
| G28C U46G | -1 |
| U27A U37A | -1 |
| C7A C61U | 1 |
| G6A G10C | 1 |
| C7G G81C | -1 |
| G35A C36U | -1 |
| C7A C21U | -1 |
| U60G G81C | 1 |
| U27G G54U | 1 |
| C26A C86A | 1 |
| C3U G52A | 1 |
| U46C C49G | 1 |
| G6A G68U | 1 |
| C61U G82C | 1 |
| C49G U69A | 1 |
| A51G U79G | 1 |
| U27C C32A | -1 |
| G11C C57G | 1 |
| U9G G35U | 1 |
